Provide the reported log10 EC50 viability of each item.
tested on: DLD1 NRF2-WT; settings: 72 h; CellTiter-Glo viability
For clarity, the numbers are log10 values of EC50 viability expressed in nM.

Some molecules with known log10 EC50 viability results, for comparison:
>>> measured("CON(C)C(=O)N1N=C(c2cc(F)ccc2F)S[C@@]1(CCCN)c1ccccc1 [Filanesib]")
0.81
>>> measured("Nc1ncnc2c1nc(N)n2[C@@H]1O[C@H](CO)[C@@H](O)[C@H]1O [8-amino-adenosine]")
3.03
>>> measured("CCNC(=O)c1noc(-c2cc(C(C)C)c(O)cc2O)c1-c1ccc(CN2CCOCC2)cc1 [Luminespib]")
1.08
>>> measured("CC(=O)c1cc2c(o1)C(=O)c1ccccc1C2=O [Napabucasin]")
2.56
>>> measured("O=C(Nc1ccc2[nH]nc(-c3ccncc3)c2c1)[C@@H]1CCN(CC(=O)N2CCN(c3ccc(-c4ncccn4)cc3)CC2)C1")
2.84

Shift focus to the following entry.
**Query** Entry CO[C@H]1C(=O)[C@]2(C)[C@@H](OC)C[C@H]3OC[C@@]3(OC(C)=O)[C@H]2[C@H](OC(=O)c2ccccc2)[C@]2(O)C[C@H](OC(=O)[C@H](O)[C@@H](NC(=O)OC(C)(C)C)c3ccccc3)C(C)=C1C2(C)C [Cabazitaxel] : reported log10 EC50 viability = ?
**Result** 0.18

###

system: DLD1 NRF2-GOF; assay: drug sensitivity score (DSS) cytotoxicity (DSS score); higher = more toxic; extreme values may be limits of the assay; details: 72 h; CellTox Green cytotoxicity
Record form. Attribute: drug sensitivity score. Fill in for each entry.
Numbers only.

>>> measured("CO[C@H]1CC[C@H](N2C(=O)CNc3ncc(-c4ccc(C(C)(C)O)nc4)nc32)CC1")
0.1
>>> measured("CO[C@H](C(=O)[C@@H](O)[C@@H](C)O)[C@@H]1Cc2cc3cc(O[C@H]4C[C@@H](O[C@H]5C[C@@H](O)[C@H](O)[C@@H](C)O5)[C@@H](O)[C@@H](C)O4)c(C)c(O)c3c(O)c2C(=O)[C@H]1O[C@H]1C[C@@H](O[C@H]2C[C@@H](O[C@H]3C[C@](C)(O)[C@H](O)[C@@H](C)O3)[C@H](O)[C@@H](C)O2)[C@H](O)[C@@H](C)O1")
0
>>> measured("CCC/C=C/C=C/C(=O)O[C@H]1/C(=C/C(=O)OC)C[C@H]2C[C@H]([C@@H](C)O)OC(=O)C[C@H](O)C[C@@H]3C[C@H](OC(C)=O)C(C)(C)[C@](O)(C[C@@H]4C/C(=C/C(=O)OC)C[C@H](/C=C/C(C)(C)[C@]1(O)O2)O4)O3")
0
>>> measured("CC(C)c1cc(C(=O)N2Cc3ccc(CN4CCN(C)CC4)cc3C2)c(O)cc1O")
0

**Query** So what's the measured drug sensitivity score for this one? `CN(C)Cc1c(C(=O)NCCOc2ccc(C(=O)NO)cc2)oc2ccccc12`
**Result** 0.7

###

tested on: DLD1 NRF2-WT; test: drug sensitivity score (DSS) viability (DSS score); higher = more sensitive; extreme values may be limits of the assay; conditions: 72 h; CellTiter-Glo viability
observable: drug sensitivity score
One number for each entry.

Here's what some known entries look like.
>>> measured("Cn1cc(-c2[nH]c3cc(NC(=O)[C@H](N)C4CCCCC4)cc4c3c2C=NNC4=O)cn1")
9
>>> measured("C[C@@H](C(=O)O)c1ccc(-c2ccccc2)c(F)c1 [Tarenflurbil]")
0
>>> measured("C[C@H]1C=C2C(=O)O[C@H]3CC[C@@H](C1)[C@@]23O [Galiellalactone]")
2.8
>>> measured("Cc1c(-c2c(-c3ccc(F)o3)sc3ncnc(O[C@H](Cc4ccccc4OCc4ccnn4CC(F)(F)F)C(=O)O)c23)ccc(OCCN2CCN(C)CC2)c1Cl")
3.6
>>> measured("Cc1ncc(Cl)cc1NCc1ccc(C(=O)N[C@@H](CC2CCCC2)C(=O)NC2CC2)s1")
4

Lab note: each molecule below needs its drug sensitivity score filled in.
1. Cc1cc(Nc2cc(N3CCN(C)CC3)nc(Sc3ccc(NC(=O)C4CC4)cc3)n2)n[nH]1 [Tozasertib]
2. CN1CCN(c2nc(C3=C(c4c[nH]c5ccccc45)C(=O)NC3=O)c3ccccc3n2)CC1 [Sotrastaurin]
3. CN[C@@H](C)C(=O)N[C@H](C(=O)N1CCC[C@H]1c1nc(C(=O)c2ccc(F)cc2)cs1)C1CCCCC1 [NVP-LCL161]

**Result**
1: 14.2; 2: 1.2; 3: 2.1

###

test system: DLD1 NRF2-WT; assay: drug sensitivity score (DSS) viability (DSS score); higher = more sensitive; extreme values may be limits of the assay; conditions: 72 h; CellTiter-Glo viability
observable: drug sensitivity score
Numbers only.

Known drug sensitivity score results, listed for orientation:
>>> measured("CC(=O)O[C@]1(C(C)=O)CC[C@H]2[C@@H]3C=C(C)C4=CC(=O)CC[C@]4(C)[C@H]3CC[C@@]21C [Megestrol acetate]")
0
>>> measured("C=C1C[C@@H]2[C@H](CC[C@]3(C)C(=O)CC[C@@H]23)[C@@]2(C)C=CC(=O)C=C12")
0.1
>>> measured("Nc1cc(C(F)(F)F)c(-c2cc(N3CCOCC3)nc(N3CCOCC3)n2)cn1")
7
>>> measured("O=C(NC1CCNCC1)c1n[nH]cc1NC(=O)c1c(Cl)cccc1Cl")
20

Respectfully, I request drug sensitivity score for each entry included below.
1. Cc1cn(-c2cc(NC(=O)c3ccc(C)c(Nc4nccc(-c5cccnc5)n4)c3)cc(C(F)(F)F)c2)cn1
2. CC[C@H](C)C(=O)O[C@H]1C[C@H](O)C=C2C=C[C@H](C)[C@H](CC[C@@H](O)C[C@@H](O)CC(=O)O)[C@H]21
3. CN(C)CCOc1ccc(/C(=C(/CCCl)c2ccccc2)c2ccccc2)cc1

**Result**
1: 2.5; 2: 0; 3: 2.2

###

Field: drug sensitivity score. Provide a value for each of the compounds that follow.
tested on: DLD1 NRF2-GOF; assay: drug sensitivity score (DSS) cytotoxicity (DSS score); higher = more toxic; extreme values may be limits of the assay; settings: 72 h; CellTox Green cytotoxicity
One number for each entry.

The cases that follow already have their drug sensitivity score on record.
>>> measured("COCCNCc1ccc(-c2cc3nccc(Oc4ccc(NC(=S)NC(=O)Cc5ccc(F)cc5)cc4F)c3s2)nc1")
0
>>> measured("CC#CC(=O)N1CCC[C@H]1c1nc(-c2ccc(C(=O)Nc3ccccn3)cc2)c2c(N)nccn12")
0
>>> measured("NC(=O)/C(=C/n1cnc(-c2cc(C(F)(F)F)cc(C(F)(F)F)c2)n1)c1cncnc1")
0

We next turn to a different compound, shown below.
**Query** Item: `Cc1ccc(C(=O)N(CCCN)[C@@H](c2oc3cc(Cl)ccc3c(=O)c2Cc2ccccc2)C(C)C)cc1` Test system: DLD1 NRF2-GOF Read-out: drug sensitivity score Value: ?
**Result** 1.5

###

system: DLD1 NRF2-GOF; experiment: TC50 cytotoxicity; higher = less toxic; details: 72 h; CellTox Green cytotoxicity
observable: TC50 cytotoxicity

A selection of reference data follows.
>>> measured("NC(=S)N/N=C/c1ncccc1N [Triapine]")
"> 10 µM"
>>> measured("CCC/C=C/C=C/C(=O)O[C@H]1/C(=C/C(=O)OC)C[C@H]2C[C@H]([C@@H](C)O)OC(=O)C[C@H](O)C[C@@H]3C[C@H](OC(C)=O)C(C)(C)[C@](O)(C[C@@H]4C/C(=C/C(=O)OC)C[C@H](/C=C/C(C)(C)[C@]1(O)O2)O4)O3 [Bryostatin 1]")
"> 0.1 µM"

**Query** Would you mind telling me what TC50 cytotoxicity value was observed for N#Cc1ccc2[nH]c(O)c(-c3ccc(CN4CCOCC4)cn3)c2c1 [AZD-1080] ?
**Result** > 10 µM

###

Would you kindly list TC50 cytotoxicity for each of these molecules?
test system: DLD1 NRF2-GOF; experiment: TC50 cytotoxicity; higher = less toxic; conditions: 72 h; CellTox Green cytotoxicity

A selection of reference data follows.
>>> measured("C=CC[C@@H]1/C=C(\\C)C[C@H](C)C[C@H](OC)[C@H]2O[C@@](O)(C(=O)C(=O)N3CCCC[C@H]3C(=O)O[C@H](/C(C)=C/[C@@H]3CC[C@@H](O)[C@H](OC)C3)[C@H](C)[C@@H](O)CC1=O)[C@H](C)C[C@@H]2OC")
"> 10 µM"
>>> measured("CC[C@]1(O)C[C@H]2CN(CCc3c([nH]c4ccccc34)[C@@](C(=O)OC)(c3cc4c(cc3OC)N(C)[C@H]3[C@@](O)(C(=O)OC)[C@H](OC(C)=O)[C@]5(CC)C=CCN6CC[C@]43[C@@H]65)C2)C1")
"> 1 µM"
>>> measured("CCOC(=O)C1=CCCC[C@H]1S(=O)(=O)Nc1ccc(F)cc1Cl")
"> 10 µM"
>>> measured("Cc1ccc(C(=O)Nc2ccc(Oc3cc4cnn(C)c4cc3-c3cn[nH]c3)c(F)c2)c(=O)n1-c1ccc(F)cc1")
"> 1 µM"
>>> measured("COc1cc2nccc(Oc3ccc(NC(=O)C4(C(=O)Nc5ccc(F)cc5)CC4)cc3)c2cc1OC [Cabozantinib]")
"> 1 µM"
>>> measured("O=C(/C=C/c1cccc(S(=O)(=O)Nc2ccccc2)c1)NO")
"> 10 µM"

Look at each molecule and report its TC50 cytotoxicity.
1. CNS(=O)(=O)Nc1nccc(Cc2c(C)c3ccc(Oc4ncccn4)cc3oc2=O)c1F
2. Nc1nc(OCc2cc(Br)cs2)c2[nH]cnc2n1

**Result**
> 1 µM
> 10 µM

Batch request: TC50 cytotoxicity per item, same order as input.
1. COC12C(COC(N)=O)C3=C(C(=O)C(C)=C(N)C3=O)N1CC1NC12 (stereo in doubt)
2. CCS(=O)(=O)c1cccc(-c2cc(C(=O)NC3CCN(C)CC3)c(C)c3[nH]c4ncc(C)cc4c23)c1
3. CN1CCC(CNc2ccc3ncc(-c4cccc(OC(F)(F)F)c4)n3n2)CC1
4. Cc1cc(C(C)Nc2ccccc2)c2nc(N3CCOCC3)cc(=O)n2c1 (stereo unspecified)
5. Cc1ccc(C(=O)N(CCCN)[C@@H](c2oc3cc(Cl)ccc3c(=O)c2Cc2ccccc2)C(C)C)cc1
6. N[C@@H]1CCCN(c2c(/C=C3\SC(=O)NC3=O)cccc2-c2ccccc2)C1

**Result**
["> 10 µM", "0.0837 µM", "3.14 µM", "> 10 µM", "> 0.1 µM", "> 10 µM"]

I would be grateful if you could provide TC50 cytotoxicity for each of the following entries.
1. Cc1nn(C)c(COc2ccc(N3CCN(S(=O)(=O)N(C)C)CC3)cc2)c1-c1cccc2c(CCCOc3cccc4ccccc34)c(C(=O)O)n(CCN3CCOCC3)c12
2. Cc1cc(-c2nc(-c3ccc(OC(F)(F)F)cc3)no2)nn1Cc1ccnc(N2CCN(C3CC3)CC2)c1
3. Nc1nc2cc(-c3ccc4ncc(C(=O)N5CCOCC5)n4c3)ccc2o1

**Result**
["> 50 µM", "> 1 µM", "> 10 µM"]

List reported TC50 cytotoxicity for each of these molecules:
1. COCC[n+]1c2c(n(Cc3cnccn3)c1C)C(=O)c1ccccc1C2=O [Sepantronium bromide]
2. Cc1nc2cccc(N)c2c(=O)n1C1CCC(=O)NC1=O (stereo unspecified)
3. CC1(C)OCCn2c1nc1c(N3CCOCC3)nc(-c3cnc(N)nc3)nc12
4. CC(=O)O[C@]1(C(C)=O)CC[C@H]2[C@@H]3C=C(C)C4=CC(=O)CC[C@]4(C)[C@H]3CC[C@@]21C [Megestrol acetate]
5. CC[C@@H]1[C@H](F)C(=O)N[C@@H]1COc1nccc2cc(C(N)=O)c(OC)cc12
6. Cc1ccc(-n2nc(C(C)(C)C)cc2NC(=O)Nc2ccc(OCCN3CCOCC3)c3ccccc23)cc1

**Result**
["0.0275 µM", "> 10 µM", "> 10 µM", "> 10 µM", "> 10 µM", "> 10 µM"]
